test system: Setaria viridis; experiment: Post-emergent herbicidal activity against Setaria viridis (green foxtail) at 50 g/ha measured after 13 days under green house conditions; type: functional
quantityKind: Activity

- CCOC(=O)C(C)Oc1ccc(Oc2nc3ccc(Cl)cc3o2)cc1 (racemic): 100%
- CCOC(=O)C(C)Oc1ccc(N(C)c2ncc3cc(Cl)ccc3n2)cc1 (racemic): 98%
- CCCCOC(=O)C(C)Oc1ccc(Oc2ccc(C(F)(F)F)cn2)cc1 (racemic): 85%
- COC(=O)C(C)Oc1ccc(N(C)c2nnc3cc(Cl)ccc3n2)cc1 (racemic): 100%
- CCOC(=O)C(C)Oc1ccc(Oc2cnc3cc(Cl)ccc3n2)cc1 (racemic): 100%

====

tested on: Oryza sativa; assay: Phytotoxicity against Oryza sativa (rice) plant at two to four-leaf growth stage at 500 g/ha measured after 13 days under green house conditions; assay type: organism-based; conditions: in vivo, 312 h
The following molecules are listed with their measured Activity values.
quantityKind: Activity (%)

• CCOC(=O)C(C)Oc1ccc(N(C)c2cnc3cc(Cl)ccc3n2)cc1 (racemic) = 0
• COC(=O)C(C)Oc1ccc(Oc2ccc3cc(Cl)ccc3n2)cc1 (racemic) = 85
• COC(=O)C(C)Oc1ccc(Oc2nnc3cc(Cl)ccc3n2)cc1 (racemic) = 0
• COC(=O)C(C)Oc1ccc(N(C)c2ccc(Cl)cc2Cl)cc1 (racemic) = 0
• CCOC(=O)C(C)Oc1ccc(Oc2cc3ccc(Cl)cc3cn2)cc1 (racemic) = 70
• COC(=O)C(C)Oc1ccc(Oc2ncc3cc(Cl)ccc3n2)cc1 (racemic) = 0
• COC(=O)C(C)Oc1ccc(N(C)c2ccc3cc(Cl)ccc3n2)cc1 (racemic) = 30
• COC(=O)C(C)Oc1ccc(Oc2ccc(Cl)cc2Cl)cc1 (racemic) = 0
• CCOC(=O)C(C)Oc1ccc(N(C)c2cc3ccc(Cl)cc3cn2)cc1 (racemic) = 0
• COC(=O)C(C)Oc1ccc(N(C)c2ccc(C(F)(F)F)cn2)cc1 (racemic) = 0

====

Catalogue of compounds with associated Activity
test system: Zea mays; test: Phytotoxicity against Zea mays (maize) plant at two to four-leaf growth stage at 500 g/ha measured after 13 days under green house conditions; format: organism-based; details: in vivo, 312 h
quantityKind: Activity (%)

* CCOC(=O)C(C)Oc1ccc(N(C)c2cnc3cc(Cl)ccc3n2)cc1 (racemic) | 50
* COC(=O)C(C)Oc1ccc(Oc2ccc3cc(Cl)ccc3n2)cc1 (racemic) | 100
* COC(=O)C(C)Oc1ccc(N(C)c2ccc(C(F)(F)F)cn2)cc1 (racemic) | 30
* CCOC(=O)C(C)Oc1ccc(N(C)c2cc3ccc(Cl)cc3cn2)cc1 (racemic) | 100
* COC(=O)C(C)Oc1ccc(N(C)c2ccc(Cl)cc2Cl)cc1 (racemic) | 30

====

test system: Sorghum halepense; test: Post-emergent herbicidal activity against Sorghum halepense (Johnson grass) at 50 g/ha measured after 13 days under green house conditions; type: functional
quantityKind: Activity

* CCCCOC(=O)C(C)Oc1ccc(Oc2ccc(C(F)(F)F)cn2)cc1 (racemic) | 85%
* COC(=O)C(C)Oc1ccc(N(C)c2nnc3cc(Cl)ccc3n2)cc1 (racemic) | 100%
* CCOC(=O)C(C)Oc1ccc(Oc2cnc3cc(Cl)ccc3n2)cc1 (racemic) | 100%
* CCOC(=O)C(C)Oc1ccc(Oc2nc3ccc(Cl)cc3o2)cc1 (racemic) | 100%
* CCOC(=O)C(C)Oc1ccc(N(C)c2ncc3cc(Cl)ccc3n2)cc1 (racemic) | 98%
